Test system: SK-OV-3 ovarian
Protocol text: NCI-60 one-dose screen, 48 h (100 = growth as untreated, 0 = no growth, -100 = all killed)
Condition details: 10 µM unless noted
This is part of a sample that, as a whole, favours compounds with a hit. Of some 83,000 tested, about 20% had one in any assay.
Returns class 1 if the recorded growth is greater than or equal to 80%, and class 0 otherwise.

# example entries with known answers
Compound	Assigned label
CNC(=O)NN	class 1
CCCCCCCCN(CCCCCCCC)CC(O)c1cc(-c2ccccc2)nc2ccc(OC)cc12 (configuration not stated)	class 1
COC(=O)/C=C/C(=O)c1cc(C)cc(C)c1O	class 1

## Input Say whether `CCNc1cc(S(=O)(=O)O)ccc1C` shows growth of 80% or more.
## Output class 1

## Input Say whether `COc1ccccc1C(OC(C)=O)OC(C)=O` shows growth of 80% or more.
## Output class 1

## Input Say whether `O=C(N/N=C/c1ccccc1O)c1ccccc1O` shows growth of 80% or more.
## Output class 0

## Input Say whether `O=C(Nc1cccc([N+](=O)[O-])c1)Nc1cccc([N+](=O)[O-])c1` shows growth of 80% or more.
## Output class 1

## Input Say whether `O=C(NCCNc1nccc(-c2c(-c3cccc(O)c3)nc3sccn23)n1)c1cccc(C(F)(F)F)c1` shows growth of 80% or more.
## Output class 1

## Input Say whether `CN(C)CCS(=O)(=O)Nc1cc(-c2ccc3ncnc(Nc4ccc(F)c(Cl)c4)c3c2)cnc1Cl` shows growth of 80% or more.
## Output class 0

## Input Say whether `CC[C@@]1(O)C(=O)OCc2c1cc1n(c2=O)Cc2c-1nc1ccccc1c2/C=N/OC(C)(C)C` shows growth of 80% or more.
## Output class 0

----------
Test system: BT-549 breast
Protocol text: NCI-60 one-dose screen, 48 h
Condition details: 10 µM unless noted
The panel holds about 83,000 compounds, 20% with a hit somewhere; the sample as a whole holds those more often. The source made the active and inactive calls. How the source made its calls: active means growth percent below 10; inactive means the rest.
Reply using exactly one outcome from Y (active), N (inactive)

Molecule	Assigned label
CCCC(C)(C)COC(=O)c1cccc(N)c1	N

## Input I'd appreciate the recorded outcome for `O=C(/C=C/c1ccco1)c1cccc(Nc2nc(Nc3ccccc3)nc(Nc3ccccc3)n2)c1` from this test.
## Output N

## Input I'd appreciate the recorded outcome for `C=C1C(=O)O[C@H]2[C@H]1CC/C(COC(=O)c1ccc(C#N)cc1)=C\CC[C@@]1(C)O[C@@H]21` from this test.
## Output N

## Input I'd appreciate the recorded outcome for `CN(C)c1ccc2cc(-c3nc4ccccc4s3)c(N)nc2c1` from this test.
## Output N

----------
System: SF-295 CNS
Protocol text: NCI-60 one-dose screen, 48 h
Condition details: 10 µM unless noted
This is part of a sample that, as a whole, favours compounds with a hit. Of some 83,000 tested, about 20% had one in any assay. Active and inactive are the calls of the source. The calls were made as follows: active = growth percent below 10; inactive = the rest.
Reply using exactly one outcome from 1 (active), -1 (inactive)

# example entries with known answers
Compound	Assigned label
CCN(CC)C(=O)C1CCN(C(=O)c2ccccc2)CC1	-1
O=C(CSc1nnc(-c2ccccc2)o1)Nc1ccc(C(=O)/C=C/c2ccccc2)cc1	-1
O=C(/C=C/c1ccccc1)Oc1ccc(/C=C/c2cc(OC(=O)/C=C/c3ccccc3)cc(OC(=O)/C=C/c3ccccc3)c2)cc1	-1
COc1ccc2c(c1)/C(=C/c1c(-c3cc(OC)c(OC)c(OC)c3Br)nc3sccn13)C(=O)N2	-1
COc1ccc(-c2nn(-c3ccc(NC(=O)c4cc(Cl)cc(Cl)c4)cc3)cc2-c2ccncc2)cc1Cl	1
C=C1c2c(Cl)ccc(O)c2C(O)=C2C(=O)[C@]3(O)C(O)=C(C(N)=O)C(=O)[C@@H](N(C)C)[C@@H]3[C@@H](O)[C@H]12	1

## Input I'd appreciate the recorded outcome for COC1OCC(OS(=O)(=O)c2ccc(C)cc2)C(OC(=O)c2ccccc2)C1OC(=O)c1ccccc1 (configuration not stated) from this test.
## Output -1

Data origin, for the record: PubChem BioAssay (NCI)
